Reference source for all entries: the RNAGym collection of RNA variant scans (doi:10.1073/pnas.2313332121)

B1: TPR 5TU (parent)
chain: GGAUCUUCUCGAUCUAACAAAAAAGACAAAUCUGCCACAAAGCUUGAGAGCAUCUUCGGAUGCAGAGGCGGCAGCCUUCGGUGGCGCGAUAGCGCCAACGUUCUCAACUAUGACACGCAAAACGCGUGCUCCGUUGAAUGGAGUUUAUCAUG

variants of: B1; experiment: polymerase ribozyme fitness, log enrichment relative to wild type (log ratio); higher = more active; in vitro selection for triplet polymerase activity
Fewer inactive variants are shown than the library holds.
# label = yes if polymerase ribozyme fitness (log ratio) >= -3 else no

>>> class("C57U G94U C118U G143U")
"no"
>>> class("U9A A17C A20C C54U U55G G58A G67A C116G G143A")
"no"
>>> class("A26G A30C A39C A47U C76U C93U A97G G133A G140U G141A")
"no"
>>> class("C69U G100A A137C")
"no"
>>> class("C93U A142U")
"yes"
>>> class("A41U C54G G65C G84U G141A C149A")
"no"
>>> class("U33A U102C A107U C125A")
"no"
>>> class("A52G G83C C105A")
"yes"
>>> class("A37C A49G C87U A115C")
"no"
>>> class("C10U U45A C99A")
"no"
>>> class("C38A G42C U55G C69U U90G U146C")
"no"
>>> class("A73G A97G")
"yes"
>>> class("U15G C27A U146A")
"no"
>>> class("A22G A91U C95U U109C A137U")
"no"
>>> class("G25A A64G G88A")
"no"
>>> class("A3G U82G C96U U148A")
"no"
>>> class("A41U G50A")
"yes"
>>> class("G86U U90G C103A A119C A121C A138C")
"no"
>>> class("A60G U144A")
"yes"
>>> class("C14G A23G G88A")
"no"
>>> class("U45A G59U G74U A121G G141A")
"no"
>>> class("A30G C54A C85G A120U C125U G136A")
"no"
>>> class("U9G C27G A28C A47U G70A A91C")
"no"
>>> class("A41G C76U G86A G117A")
"yes"
>>> class("G25A U55A U135A")
"no"
>>> class("G81A C87U G100U A115U C116U")
"no"
>>> class("C51U C85U G140C")
"no"
>>> class("G46U C99A")
"no"
>>> class("G46C C57A A66U A113C")
"no"
>>> class("C14U A17U A19C U44A G68A A73G G86U C96U C149G")
"no"
>>> class("U56A U144A")
"yes"
>>> class("C27G C36U G50U A73U U82A C95U")
"no"
>>> class("G42U U44A C85A C96G A115C C129A")
"no"
>>> class("G11A A91G")
"no"
>>> class("A37C A97G U151A")
"no"
>>> class("G68U C69A A113G G117A")
"no"
>>> class("C5U C54U U82A C95G A147U")
"yes"
>>> class("C87U C125A C131U")
"yes"
>>> class("U82G C96A")
"yes"
>>> class("C75G G94A")
"no"
>>> class("A21C U53A U56A C69U A98U G117C C118G U134A")
"no"
>>> class("U9A")
"yes"
>>> class("G59C U78G G81C")
"no"
>>> class("C51A A137C")
"no"
>>> class("A52C G68A G94C C99U C108G A120C G143C")
"no"
